molecular target: Sterol O-acyltransferase 1 (Homo sapiens); assay: Inhibition of ACAT at 0.05 mg/mL
Calls of active or inactive are those of the source. The calls are words filed in the database; no cut-off is given here.
measure: Activity

compound_structure	target_of_assay	measured_result
CC1(C)[C@@H](O[C@@H]2O[C@H](CO)[C@@H](O)[C@H](O)[C@H]2O[C@@H]2O[C@H](CO)[C@@H](O)[C@H](O)[C@H]2O)CC[C@]2(C)[C@H]3C[C@@H](O)C4=C5[C@]6(CC[C@](C)(OC6=O)[C@@]5(C)O)CC[C@@]4(C)[C@]3(C)CC[C@@H]12	Sterol O-acyltransferase 1 (Homo sapiens)	inactive
C[C@@H]1O[C@@H](O[C@H]2[C@H](O[C@H]3CC[C@]4(C)[C@H]5CC=C6[C@@H]7[C@H](O)C(C)(C)CC[C@]7(C(=O)O[C@@H]7O[C@H](CO)[C@@H](O)[C@H](O)[C@H]7O)CC[C@@]6(C)[C@]5(C)CC[C@H]4C3(C)C)OC[C@H](O)[C@@H]2O[C@@H]2O[C@H](CO)[C@@H](O)[C@H](O)[C@H]2O)[C@H](O)[C@H](O)[C@H]1O	Sterol O-acyltransferase 1 (Homo sapiens)	inactive
C[C@@H]1O[C@@H](O[C@H]2[C@H](O[C@H]3CC[C@]4(C)[C@H]5CC=C6[C@H]7[C@]8(CC[C@](C)(OC8=O)[C@@]7(C)O)CC[C@@]6(C)[C@]5(C)CC[C@H]4C3(C)C)OC[C@H](O)[C@@H]2O[C@@H]2O[C@H](CO)[C@@H](O)[C@H](O)[C@H]2O[C@@H]2O[C@H](CO)[C@@H](O)[C@H](O)[C@H]2O)[C@H](O)[C@H](O)[C@H]1O	Sterol O-acyltransferase 1 (Homo sapiens)	inactive

Ref: ChEMBL document CHEMBL1144087
